Attribution: patent US20250136692A1

Could you please report measured hPD-1-HIS Binding (OD 450) for the items listed next?
Target: hPD-1-HIS (human) (UniProt Q15116)
Sequence (Q15116 25-167 limits assumed): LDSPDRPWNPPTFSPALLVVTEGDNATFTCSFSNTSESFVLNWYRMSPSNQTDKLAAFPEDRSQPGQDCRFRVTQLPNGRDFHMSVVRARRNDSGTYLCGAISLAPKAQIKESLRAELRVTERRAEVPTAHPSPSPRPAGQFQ
Experiment: ELISA, plate-coated PD-1 protein, anti-human IgG detection
One number for each entry, in OD 450.

binder | hPD-1-HIS Binding (OD 450)
4G9-9 (antibody, human IgG1, kappa, V domains shown) VH: QVQLVQSGAEVKKPGASVKVSCKASGYTFTTYGINWVRQATGQGLKWMGWINTYSGVPGYAQKFQGRVTMTLNTSISTAYMELSSLRSEDTAVYYCARGVHGVSYWGQGTLVTVSS VL: EIVMTQSPATLSVSPGERATLSCRASQSIGTSLHWYQQKPGGAPRLLIKYASESITGIPARFSGSGSGTEFTLTISSLQSEDFAVYYCQQSNSWPYTFGQGTKLEIKR | 0.31

Ask: What measured hPD-1-HIS Binding (OD 450) goes with 4G9-10 (antibody, human IgG1, kappa, V domains shown) VH: QVQLVQSGAEVKKPGASVKVSCKASGYTFTTYGINWVRQATGQGLEWMGWINTYSGVPGYAQKFQGRVTMTLNTSISTAYMELSSLRSEDTAVYYCARGSKGDAYWGQGTLVTVSS VL: DIVMTQSPSSLSASVGDRVTITCRASQSISTWLAWFQQKPGKAPKLLIYKASSLKSGVPSRFSGSGSGTEFTLTISSLQPDDFATYYCQQSYSTPWTFGQGTKLEIKR ?
Reply: 0.287
